# PROTOCOL NOTES: Stability at 40° C./75% RH for 1 week and 2 weeks (XRPD and HPLC)
# Assay type: physicochemical
# ASSAY CONTEXT: 2 week, open container
MEASURED ENDPOINT: HPLC purity after storage

C=CC(=O)Nc1cccc(Nc2nc(Nc3ccc(N4CCN(C(C)=O)CC4)cc3OC)ncc2C(F)(F)F)c1 [Form A]
ca. 96.3%
C=CC(=O)Nc1cccc(Nc2nc(Nc3ccc(N4CCN(C(C)=O)CC4)cc3OC)ncc2C(F)(F)F)c1 [Form F]
ca. 96.3%

----------
# PROTOCOL NOTES: Dynamic vapour sorption (DVS) with post DVS XRPD
# Type: physicochemical
MEASURED ENDPOINT: Post DVS XRPD (solid form)

C=CC(=O)Nc1cccc(Nc2nc(Nc3ccc(N4CCN(C(C)=O)CC4)cc3OC)ncc2C(F)(F)F)c1 [Form C]
converted to Form A
C=CC(=O)Nc1cccc(Nc2nc(Nc3ccc(N4CCN(C(C)=O)CC4)cc3OC)ncc2C(F)(F)F)c1 [Form G]
converted to Form A
C=CC(=O)Nc1cccc(Nc2nc(Nc3ccc(N4CCN(C(C)=O)CC4)cc3OC)ncc2C(F)(F)F)c1 [Form E]
converted to Form A

----------
# PROTOCOL NOTES: Aqueous solubility: slurries in deionised water, HPLC
# Type: physicochemical
# ASSAY CONTEXT: slurry in deionised water shaken ca. 24 hours; assessment in words
MEASURED ENDPOINT: aqueous solubility

C=CC(=O)Nc1cccc(Nc2nc(Nc3ccc(N4CCN(C(C)=O)CC4)cc3OC)ncc2C(F)(F)F)c1 [Form E]
extremely poor
C=CC(=O)Nc1cccc(Nc2nc(Nc3ccc(N4CCN(C(C)=O)CC4)cc3OC)ncc2C(F)(F)F)c1 [Form D]
extremely poor
C=CC(=O)Nc1cccc(Nc2nc(Nc3ccc(N4CCN(C(C)=O)CC4)cc3OC)ncc2C(F)(F)F)c1 [Form B]
poor

----------
# PROTOCOL NOTES: Stability at 40° C./75% RH for 1 week and 2 weeks (XRPD and HPLC)
# Assay type: physicochemical
# ASSAY CONTEXT: 1 week, open container
MEASURED ENDPOINT: HPLC purity after storage

C=CC(=O)Nc1cccc(Nc2nc(Nc3ccc(N4CCN(C(C)=O)CC4)cc3OC)ncc2C(F)(F)F)c1 [Form B]
ca. 96.8%
C=CC(=O)Nc1cccc(Nc2nc(Nc3ccc(N4CCN(C(C)=O)CC4)cc3OC)ncc2C(F)(F)F)c1 [Form F]
ca. 96.8%
C=CC(=O)Nc1cccc(Nc2nc(Nc3ccc(N4CCN(C(C)=O)CC4)cc3OC)ncc2C(F)(F)F)c1 [Form G]
ca. 96.8%

----------
# PROTOCOL NOTES: XRPD after heating or drying (solid form conversion)
# Assay type: physicochemical
# ASSAY CONTEXT: heated to 120° C.
MEASURED ENDPOINT: XRPD after heating

C=CC(=O)Nc1cccc(Nc2nc(Nc3ccc(N4CCN(C(C)=O)CC4)cc3OC)ncc2C(F)(F)F)c1 [Form C]
converted to Form A
C=CC(=O)Nc1cccc(Nc2nc(Nc3ccc(N4CCN(C(C)=O)CC4)cc3OC)ncc2C(F)(F)F)c1 [Form E]
converted to Form A

----------
# PROTOCOL NOTES: Thermodynamic solubility studies at various pH
# Assay type: physicochemical
# ASSAY CONTEXT: aqueous buffer, thermodynamic from solid; buffer pH 3 (citrate/phosphate), pH prior to analysis 2.26, ca. 24 hours
MEASURED ENDPOINT: solubility at 24 h

C=CC(=O)Nc1cccc(Nc2nc(Nc3ccc(N4CCN(C(C)=O)CC4)cc3OC)ncc2C(F)(F)F)c1 [Form I]
23 µg/mL
